# MEASUREMENT_NOTES: Stability in human liver microsomes at 5 uM
OBSERVED_PROPERTY: remaining at 5 µM (%)

[
  {
    "MOL": "CCN(C(=O)c1ccc(C#N)cc1)c1ccc(C(O)(C(F)(F)F)C(F)(F)F)cc1",
    "OBSERVED_PROPERTY": "remaining at 5 µM",
    "OBSERVED_VALUE": 93
  },
  {
    "MOL": "CCN(C(=O)N1CCOCC1)c1ccc(C(O)(C(F)(F)F)C(F)(F)F)cc1",
    "OBSERVED_PROPERTY": "remaining at 5 µM",
    "OBSERVED_VALUE": 87
  }
]

A. O=C(O)CCCCN(C(=O)N1CCOCC1)c1ccc(C(O)(C(F)(F)F)C(F)(F)F)cc1
B. CCN(CCCCO)C(=O)N(CC)c1ccc(C(O)(C(F)(F)F)C(F)(F)F)cc1
### Prompt Which value of remaining at 5 µM is numerically greater: that of A or that of B ? Identify your selection by its label.
### Response A

* * *

# MEASUREMENT_NOTES: Stability in rat liver microsomes at 5 uM
OBSERVED_PROPERTY: remaining at 5 µM (%)

Worked examples, 2 compounds total:
[
  {
    "MOL": "O=C(O)CCCCN(C(=O)N1CCOCC1)c1ccc(C(O)(C(F)(F)F)C(F)(F)F)cc1",
    "UNIT_ANNOTATION": "%",
    "remaining at 5 µM": 108
  },
  {
    "MOL": "CCN(C(=O)N1CCOCC1)c1ccc(C(O)(C(F)(F)F)C(F)(F)F)cc1",
    "UNIT_ANNOTATION": "%",
    "remaining at 5 µM": 9
  }
]

I. CCN(C(=O)c1ccc(C#N)cc1)c1ccc(C(O)(C(F)(F)F)C(F)(F)F)cc1
II. CCN(CCCCO)C(=O)N(CC)c1ccc(C(O)(C(F)(F)F)C(F)(F)F)cc1
### Prompt Param metric = remaining at 5 µM; output whichever of I , II has the minimum value. Identify your selection by its label.
### Response II
(II: 7%, I: 66%)

* * *

# MEASUREMENT_NOTES: Solubility in PBS at pH 7.4
OBSERVED_PROPERTY: solubility (µM)

Worked examples, 2 compounds total:
[
  {
    "MOL": "CCN(CCCCO)C(=O)N(CC)c1ccc(C(O)(C(F)(F)F)C(F)(F)F)cc1",
    "solubility [µM]": 187
  },
  {
    "MOL": "O=C(O)CCCCN(C(=O)N1CCOCC1)c1ccc(C(O)(C(F)(F)F)C(F)(F)F)cc1",
    "solubility [µM]": 206
  }
]

I. CCN(C(=O)c1ccc(C#N)cc1)c1ccc(C(O)(C(F)(F)F)C(F)(F)F)cc1
II. CCN(C(=O)N1CCOCC1)c1ccc(C(O)(C(F)(F)F)C(F)(F)F)cc1
### Prompt Which value of solubility is numerically greater: that of I or that of II ? Identify your selection by its label.
### Response II

* * *

# MEASUREMENT_NOTES: Caco-2 cell membrane permeability
# TEST_SETTINGS: human
OBSERVED_PROPERTY: Papp (×10⁻⁶ cm/s)

[
  {
    "MOL": "CCN(C(=O)c1ccc(C#N)cc1)c1ccc(C(O)(C(F)(F)F)C(F)(F)F)cc1",
    "OBSERVED_VALUE": 38.7
  },
  {
    "MOL": "CCN(C(=O)N1CCOCC1)c1ccc(C(O)(C(F)(F)F)C(F)(F)F)cc1",
    "OBSERVED_VALUE": 68.2
  },
  {
    "MOL": "CCN(CCCCO)C(=O)N(CC)c1ccc(C(O)(C(F)(F)F)C(F)(F)F)cc1",
    "OBSERVED_VALUE": 49.4
  }
]
